Sourced from patent US20240116946A1

// values below are reported pIC50
Molecular target: recombinant SARS-CoV-2 Main protease (Mpro) (Severe acute respiratory syndrome coronavirus 2 (2019-nCoV) (SARS-CoV-2), UniProt P0DTD1)
Assay: Cov Mpro Biochemical IC50 Assay
Details: recombinant SARS-CoV-2 Mpro 7.5 nM, fluorogenic peptide substrate 40 μM; read-out: MPro IC50
By convention, pIC50 is the negative base-10 log of a molar concentration.

molecule	pIC50
COc1cc(-c2cc3[nH]c(=O)n(-c4cncc5ccccc45)c(=O)c3s2)ccc1F [Example 469]	6.56
N#CCCn1c(=O)n(-c2cncc3ccccc23)c(=O)c2sc(-c3c(Cl)cccc3-c3cncc(C#N)c3)cc21 [Example 935]	7.84
Cc1cc(-c2cc3c(s2)c(=O)n(-c2cncc4cnn(C)c24)c(=O)n3CCC#N)c(C#N)cc1F [Example 779]	7.62

Any idea what its pIC50 is? The molecule is COc1cnc(Cl)c(-c2cc3c(s2)c(=O)n(-c2cncc4ccccc24)c(=O)n3CC2(C#N)CC2)c1 [Example 759]
8.27

Sample COc1cc(-c2cc3c(s2)c(=O)n(-c2cncc(OC(F)F)c2)c(=O)n3CCC#N)c(Cl)cc1F [Example 872] — what was its pIC50?
8.08

Give its pIC50 value. Item: COc1ccc(Cl)c(-c2ccc3c(=O)n(-c4cncc5c(Cl)cccc45)c(=O)[nH]c3c2)c1 [Example 593]
4.42

# get_value(readout='pIC50', item= Cn1ncc2cncc(-n3c(=O)[nH]c4cc(-c5ccc(F)cc5Cl)sc4c3=O)c21 [Example 662] )
7.39

====

Quick reference: log10(IC50) of the listed items.
Molecular target: recombinant SARS-CoV-2 Main protease (Mpro) (Severe acute respiratory syndrome coronavirus 2 (2019-nCoV) (SARS-CoV-2), UniProt P0DTD1)
Assay: Cov Mpro Biochemical IC50 Assay
Conditions: recombinant SARS-CoV-2 Mpro 7.5 nM, fluorogenic peptide substrate 40 μM; read-out: MPro IC50
Record value = log10 of IC50 given in nM.

compound	log10(IC50)
O=c1[nH]c2cc(-c3ccccc3Cl)sc2c(=O)n1-c1cncc(C(F)(F)F)c1	2.24

The record that follows has no log10(IC50) shown yet.
Query (compound): `COc1cnc(C#N)c(-c2cc3[nH]c(=O)n(-c4cncc5cccc(F)c45)c(=O)c3s2)c1` ; field requested: log10(IC50)
1.66

====

Biological target: recombinant SARS-CoV-2 Main protease (Mpro) (Severe acute respiratory syndrome coronavirus 2 (2019-nCoV) (SARS-CoV-2), UniProt P0DTD1)
Assay: Cov Mpro Biochemical IC50 Assay
Conditions: recombinant SARS-CoV-2 Mpro 7.5 nM, fluorogenic peptide substrate 40 μM; read-out: MPro IC50
Measured IC50 of individual entries
Answer with a number only, understood to be in nM.

Example results:
compound	unit-name	endpoint-result
COc1cc(-c2cc3c(s2)c(=O)n(-c2cncc4ccncc24)c(=O)n3CCC#N)c(Cl)cc1F [Example 923]	nM	4.3
COc1ccc(Cl)c(-c2cc3[nH]c(=O)n(-c4cncc5cccc(F)c45)c(=O)c3s2)c1 [Example 445]	nM	5.71
COc1cc(-c2cc3[nH]c(=O)n(-c4cncc5cnn(C)c45)c(=O)c3s2)c(C#N)cc1F [Example 751]	nM	11.1

--- query ---
Bench note: what IC50 did COc1cc(-c2cc3[nH]c(=O)n(-c4cncc5ccccc45)c(=O)c3cc2F)c(C#N)cc1F (single isomer, unassigned) [Example 511] show?
913
